Item-by-item account of IC50
Target: human TASK-3 (Homo sapiens, UniProt Q9NPC2)
Sequence (Q9NPC2 whole entry): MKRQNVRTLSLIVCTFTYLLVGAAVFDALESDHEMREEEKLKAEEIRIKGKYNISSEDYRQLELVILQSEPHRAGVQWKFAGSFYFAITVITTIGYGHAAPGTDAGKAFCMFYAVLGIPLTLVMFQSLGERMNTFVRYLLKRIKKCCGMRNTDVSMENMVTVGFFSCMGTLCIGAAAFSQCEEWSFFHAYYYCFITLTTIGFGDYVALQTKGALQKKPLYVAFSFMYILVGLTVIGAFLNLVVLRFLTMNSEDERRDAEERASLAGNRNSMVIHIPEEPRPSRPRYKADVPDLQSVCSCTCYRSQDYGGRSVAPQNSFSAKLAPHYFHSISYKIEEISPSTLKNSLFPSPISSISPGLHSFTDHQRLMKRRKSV
Assay: Inhibition of recombinant TASK-3 in stably transfected CHO cells, KCl-induced depolarization, voltage-sensitive dye (B-2)
Assay type: cell-based
Parameters: expressed in transfected cells; host or cells: stably transfected CHO cells
Settings: depolarization induced by 40 mM potassium chloride, some mean values from multiple determinations
Procedure: B-2. Inhibition of Recombinant TASK-1 and TASK-3 In Vitro The investigations on the inhibition of the recombinant TASK-1 and TASK-3 channels were conducted using stably transfected CHO cells. […] 6 (5), 305-312 (2001); Molecular Devices FLIPR Application Note: Measuring membrane potential using the FLIPR® membrane potential assay kit on Fluorometric Imaging Plate Reader (FLIPR®) systems, http://www.moleculardevices.com/reagents-supplies/assay-kits/ion-channels/flipr-membrane-potential-assay-kits]. […]

{"Molecule": "COc1ccc(F)c(C(=O)N2CC3CCC2CN3Cc2c(-c3ccc(Br)cc3)nc3ccccn23)n1 (racemic) [Example 153]", "Experimental system": "human TASK-3 (Homo sapiens, UniProt Q9NPC2)", "IC50 [nM]": 34}
{"Molecule": "O=C(c1cccc(OC(F)(F)F)c1)N1CC2CCC1CN2Cc1c(-c2ccc(Cl)cc2)nc2ccccn12 (single isomer, unassigned) [Example 48]", "Experimental system": "human TASK-3 (Homo sapiens, UniProt Q9NPC2)", "IC50 [nM]": 17}
{"Molecule": "COc1ccc(Cl)c(C(=O)N2C3COCC2CN(Cc2c(-c4ccc(Cl)cc4)nc4ccccn24)C3)n1 [Example 32]", "Experimental system": "human TASK-3 (Homo sapiens, UniProt Q9NPC2)", "IC50 [nM]": 9.6}
{"Molecule": "O=C(c1cccc(Cl)c1)N1C2COCC1CN(Cc1c(-c3ccc(Cl)cc3)nc3ccccn13)C2 [Example 79]", "Experimental system": "human TASK-3 (Homo sapiens, UniProt Q9NPC2)", "IC50 [nM]": 190}
{"Molecule": "COc1cccc(C(=O)N2C[C@H]3CC[C@@H]2CN3Cc2c(-c3ccc(Cl)cc3)nc3ccccn23)n1 [Example 34]", "Experimental system": "human TASK-3 (Homo sapiens, UniProt Q9NPC2)", "IC50 [nM]": 84}
{"Molecule": "CCN(C(=O)N1C2COCC1CN(Cc1c(-c3ccc(Cl)cc3)nc3ccccn13)C2)C1CCCCC1 [Example 191]", "Experimental system": "human TASK-3 (Homo sapiens, UniProt Q9NPC2)", "IC50 [nM]": 190}
{"Molecule": "Cc1nc(C(=O)N2C3CCC2CN(Cc2c(-c4ccc(Cl)cc4)nc4ccccn24)C3)sc1C [Example 150]", "Experimental system": "human TASK-3 (Homo sapiens, UniProt Q9NPC2)", "IC50 [nM]": 210}
{"Molecule": "CC(C)c1ccc(-c2nc3ccccn3c2CN2CC3CCC(C2)N3C(=O)c2ccccc2F)cc1 [Example 110]", "Experimental system": "human TASK-3 (Homo sapiens, UniProt Q9NPC2)", "IC50 [nM]": 300}
{"Molecule": "COc1ccc(C)c(C(=O)N2C3COCC2CN(Cc2c(-c4ccc(Cl)cc4)nc4ccccn24)C3)n1 [Example 81]", "Experimental system": "human TASK-3 (Homo sapiens, UniProt Q9NPC2)", "IC50 [nM]": 25}
{"Molecule": "O=C(C1CCCC1)N1C2CCC1CN(Cc1c(-c3ccc(Br)cc3)nc3ccccn13)C2 [Example 96]", "Experimental system": "human TASK-3 (Homo sapiens, UniProt Q9NPC2)", "IC50 [nM]": 4.5}
{"Molecule": "CCN(C(=O)N1C2CCC1CN(Cc1c(-c3ccc(Cl)cc3)nc3ccccn13)C2)c1ccccc1 [Example 177]", "Experimental system": "human TASK-3 (Homo sapiens, UniProt Q9NPC2)", "IC50 [nM]": 130}
{"Molecule": "O=C(c1ccccc1F)N1CC2CCC1CN2Cc1c(-c2ccc(Cl)cc2)nc2ccccn12 (single isomer, unassigned) [Example 35]", "Experimental system": "human TASK-3 (Homo sapiens, UniProt Q9NPC2)", "IC50 [nM]": 200}
{"Molecule": "COc1cccc(C(=O)N2CC3CCC2CN3Cc2c(-c3ccc(Cl)cn3)nc3ccccn23)n1 (single isomer, unassigned; enantiomer 1) [Example 26]", "Experimental system": "human TASK-3 (Homo sapiens, UniProt Q9NPC2)", "IC50 [nM]": 42}
{"Molecule": "Cc1ccc(F)cc1C(=O)N1CC2CCC1CN2Cc1c(-c2ccc(Cl)cc2)nc2ccccn12 (single isomer, unassigned) [Example 47]", "Experimental system": "human TASK-3 (Homo sapiens, UniProt Q9NPC2)", "IC50 [nM]": 15}
{"Molecule": "CC(C)c1ccc(-c2nc3ccccn3c2CN2CC3CCC(C2)N3C(=O)OC(C)(C)C)cc1 [Example 12]", "Experimental system": "human TASK-3 (Homo sapiens, UniProt Q9NPC2)", "IC50 [nM]": 8300}
{"Molecule": "O=C(Nc1ccc(Cl)cc1)N1C2CCC1CN(Cc1c(-c3ccc(Cl)cc3)nc3ccccn13)C2 [Example 161]", "Experimental system": "human TASK-3 (Homo sapiens, UniProt Q9NPC2)", "IC50 [nM]": 1000}
{"Molecule": "COc1cccc(C(=O)N2CC3CCC(C2)N3Cc2c(-c3ccc(Br)cc3)nc3ccccn23)n1 [Example 83]", "Experimental system": "human TASK-3 (Homo sapiens, UniProt Q9NPC2)", "IC50 [nM]": 14}
{"Molecule": "COc1ccc(Cl)c(C(=O)N2C3COCC2CN(Cc2c(-c4ccc(Cl)cn4)nc4ccccn24)C3)n1 [Example 136]", "Experimental system": "human TASK-3 (Homo sapiens, UniProt Q9NPC2)", "IC50 [nM]": 44}
{"Molecule": "O=C(C1CCCCC1)N1C2CCC1CN(Cc1c(-c3ccc(Cl)cc3)nc3ccccn13)C2 [Example 105]", "Experimental system": "human TASK-3 (Homo sapiens, UniProt Q9NPC2)", "IC50 [nM]": 20}
{"Molecule": "O=C(C1CCCC1)N1C2CCC1CN(Cc1c(-c3ccc(Cl)cn3)nc3ccccn13)C2 [Example 113]", "Experimental system": "human TASK-3 (Homo sapiens, UniProt Q9NPC2)", "IC50 [nM]": 21}
{"Molecule": "COc1ccc(C)c(C(=O)N2CC3CCC(C2)N3Cc2c(-c3ccc(C(C)C)cc3)nc3ccccn23)n1 [Example 144]", "Experimental system": "human TASK-3 (Homo sapiens, UniProt Q9NPC2)", "IC50 [nM]": 27}
{"Molecule": "CC(C)c1ccc(-c2nc3ccccn3c2CN2CC3CCC2CN3C(=O)c2ccccc2F)cc1 (single isomer, unassigned) [Example 57]", "Experimental system": "human TASK-3 (Homo sapiens, UniProt Q9NPC2)", "IC50 [nM]": 240}
{"Molecule": "O=C(c1cccc(OC(F)(F)F)c1)N1C2CC1CN(Cc1c(-c3ccc(Cl)cc3)nc3ccccn13)C2 [Example 120]", "Experimental system": "human TASK-3 (Homo sapiens, UniProt Q9NPC2)", "IC50 [nM]": 180}
{"Molecule": "O=C(c1cccc(OC(F)(F)F)n1)N1C2COCC1CN(Cc1c(-c3ccc(Cl)cn3)nc3ccccn13)C2 [Example 135]", "Experimental system": "human TASK-3 (Homo sapiens, UniProt Q9NPC2)", "IC50 [nM]": 160}
{"Molecule": "COc1ccc(F)c(C(=O)N2C[C@@H]3CC[C@H]2CN3Cc2c(-c3ccc(Cl)cc3)nc3ccccn23)n1 (single isomer, unassigned; enantiomer 1) [Example 23]", "Experimental system": "human TASK-3 (Homo sapiens, UniProt Q9NPC2)", "IC50 [nM]": 170}
{"Molecule": "Cc1cnc(C(=O)N2C3CCC2CN(Cc2c(-c4ccc(Cl)cc4)nc4ccccn24)C3)s1 [Example 149]", "Experimental system": "human TASK-3 (Homo sapiens, UniProt Q9NPC2)", "IC50 [nM]": 300}
{"Molecule": "COc1cccc(C(=O)N2CC3CCC(C2)N3Cc2c(-c3ccc(Cl)cc3)nc3ccccn23)n1 [Example 92]", "Experimental system": "human TASK-3 (Homo sapiens, UniProt Q9NPC2)", "IC50 [nM]": 29}
{"Molecule": "COc1ccccc1C(=O)N1C2CCC1CN(Cc1c(-c3ccc(Cl)cc3)nc3ccccn13)C2 [Example 109]", "Experimental system": "human TASK-3 (Homo sapiens, UniProt Q9NPC2)", "IC50 [nM]": 92}
{"Molecule": "O=C(C1CCCC1)N1C2CC1CN(Cc1c(-c3ccc(Cl)cc3)nc3ccccn13)C2 [Example 116]", "Experimental system": "human TASK-3 (Homo sapiens, UniProt Q9NPC2)", "IC50 [nM]": 340}
